Recorded values, source paper PMC6099921.

Assay: Celltiter-Glo Luminescent cell viability assay (cytotoxicity)
Format: cell-based
Conditions: human, CC50
Method: The antiviral activity of the test compounds (1, 3, 6, and 7) was examined in the Cell-based Flavivirus Immuno-assay (CFI assay). The CFI assay is based on a quantitative immunodetection of the DENV envelope protein production in A549 cells. Infection of the A549 cells by the DENV2 was allowed to occur in the presence of each test compound, after which virus load was measured by quantifying the amount of envelope protein that is produced using enzyme linked immunosorbent assay (ELISA). […]
endpoint: CC50 at 48 h

Asked: What does the record list as CC50 at 48 h for NC12CC3CC(CC(C3)C1)C2 [Compound 1, amantadine, reference compound] ?
Given back: > 100 µM

====

Test system: A549 cells
Assay: Celltiter-Glo Luminescent cell viability assay (cytotoxicity)
Type: cell-based
Conditions: A549 cells, 48 h, maximum concentration tested 100 µM
Experimental: The antiviral activity of the test compounds (1, 3, 6, and 7) was examined in the Cell-based Flavivirus Immuno-assay (CFI assay). The CFI assay is based on a quantitative immunodetection of the DENV envelope protein production in A549 cells. Infection of the A549 cells by the DENV2 was allowed to occur in the presence of each test compound, after which virus load was measured by quantifying the amount of envelope protein that is produced using enzyme linked immunosorbent assay (ELISA). […]
endpoint: CC50

# molecule, CC50
measured = [
    ("NS(=O)(=O)c1ccc(C(=O)NC23CC4CC(CC(C4)C2)C3)cc1 [Compound 7, N-(adamantan-1-yl)-4-sulfamoylbenzamide]", "> 100 µM"),
]

Consider the additional molecule presented here.
Asked: What does the record list as CC50 for O=C(NC12CC3CC(CC(C3)C1)C2)c1ccc(S(=O)(=O)NC23CC4CC(CC(C4)C2)C3)cc1 [Compound 3] ?
Given back: > 100 µM

====

Test: Celltiter-Glo Luminescent cell viability assay (cytotoxicity)
Type: cell-based
Details: human, A549 cells, 48 h, maximum concentration tested 100 µM; read-out: CC50
Procedure: The antiviral activity of the test compounds (1, 3, 6, and 7) was examined in the Cell-based Flavivirus Immuno-assay (CFI assay). The CFI assay is based on a quantitative immunodetection of the DENV envelope protein production in A549 cells. Infection of the A549 cells by the DENV2 was allowed to occur in the presence of each test compound, after which virus load was measured by quantifying the amount of envelope protein that is produced using enzyme linked immunosorbent assay (ELISA). […]
endpoint: CC50 at 48 h

These solved cases illustrate the format of a correct answer.
# compound, endpoint-result
rows = [
    ("O=C(NC12CC3CC(CC(C3)C1)C2)c1ccccc1 [Compound 6, N-(adamantan-1-yl)benzamide]", "> 100 µM"),
    ("NS(=O)(=O)c1ccc(C(=O)NC23CC4CC(CC(C4)C2)C3)cc1 [Compound 7, N-(adamantan-1-yl)-4-sulfamoylbenzamide]", "< 100 µM"),
]

Consider the additional compound presented here.
Asked: What does the record list as CC50 at 48 h for "O=C(NC12CC3CC(CC(C3)C1)C2)c1ccc(S(=O)(=O)NC23CC4CC(CC(C4)C2)C3)cc1" ?
Given back: < 100 µM
